Hello, the source for this data is PubChem BioAssay (NCI), in case you need it.

Tested on: DLD-1 colon
Experiment: NCI tumour cell line growth inhibition, 48 h
Experimental readout: TGI

These solved cases illustrate the format of a correct answer.
{"Compound": "Cc1cccc(C)c1NC(=O)C1C(=O)N(c2c(C)cccc2C)C(=O)/C1=N\\NC(N)=S (stereo not given)", "TGI": "> 100 µM"}
{"Compound": "CS(=O)(=O)CSCSSCS(C)(=O)=O", "TGI": "> 75.4 µM"}

Incoming: Need TGI, item O=S(=O)(O)c1ccc(N=Nc2ccc(N=Nc3ccc(/C=C/c4ccc(N=[N+]([O-])c5ccc(/C=C/c6ccc(N=Nc7ccc(N=Nc8ccc(S(=O)(=O)O)cc8)cc7)cc6S(=O)(=O)O)c(S(=O)(=O)O)c5)cc4S(=O)(=O)O)c(S(=O)(=O)O)c3)cc2)cc1
Outgoing: > 100 µM

Incoming: Could you share which TGI value was measured for CCOC(=O)/C=C1\CCCC12OCCO2 ?
Outgoing: > 100 µM

Incoming: // query TGI value for entry O=C(N/N=C(/CCN1CCCC1)CC(c1ccccc1)c1c(O)c2ccccc2oc1=O)c1ccncc1 (stereo not given)
Outgoing: > 100 µM

Incoming: Data request, read-out TGI, for COc1ccc(/C=C\c2cc(OC)c(O[Si](C)(C)C(C)(C)C)c(OC)c2)cc1
Outgoing: > 100 µM

Incoming: Consider the compound shown here: CN(C)CC1CCC/C1=N\O (stereo not given) What is its recorded TGI?
Outgoing: > 100 µM
